Experiment: NCI Yeast Anticancer Drug Screen. Data for the rad18 strain (AID 177)
Settings: S. cerevisiae rad18 mutant growth inhibition; at 11.0 µM
Experimental: Growth inhibition of yeast strains with defined genetic alterations is measured as a screen for potential anti-cancer activity. Selected strains with alterations in DNA damage repair or cell cycle control were exposed to compounds and growth inhibition was measured relative to vehicle treated controls. The strain used in this assay is rad18
Compounds without any hit were thinned out: in the full panel of roughly 79,000, 15% have a hit. Calls of active or inactive are those of the source. No stated cut-off is given here; in the data, active means growth inhibition above about 70%; inactive means the rest.
Classes used: active, inactive

1) Cc1ccc2occ/c(=N\Nc3ccccc3)c2c1: inactive
2) CCCCCC(=O)c1ccc(O)cc1O: inactive
3) N#C/C(=C1C=C(Br)/C(=N\O)C=C\1Cl)c1cccc2ccccc12: active
4) COc1cc(NCc2ccc3nc(N)nc(N)c3c2C)cc(OC)c1OC: inactive
5) Cc1cccc(/C=N/NC(=S)N(C)CCc2ccccn2)n1: active
6) O=C(/C=C/c1cccc(Br)c1)c1ccc(Cl)cc1: inactive
7) NNC(=S)Nc1cccc(Cl)c1: inactive
8) CC1(C)C(C=O)=CCC1CC(N)=O (stereo not drawn): inactive

* * *

We begin with a simple list: items and their reported growth inhibition.
Experiment: NCI Yeast Anticancer Drug Screen. Data for the sgs1 mgt1 strain (AID 161);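 further: 0% = growth of cultures given vehicle only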
Settings: S. cerevisiae sgs1 mgt1 strain, at 5.0 µM (retest, dose inferred, filed as 0.5), hits give high values
This is part of a sample that, as a whole, favours compounds with a hit. Of some 79,000 tested, about 15% had one in any assay.
Measured endpoint: growth inhibition (%)

1) CN[C@@H]1C[C@H]2O[C@@](C)([C@@H]1OC)n1c3ccccc3c3c4c(c5c6ccccc6n2c5c31)C(=O)N[C@@H]4O: -1
2) CC(=O)c1cc2c(Cl)cc(Cl)cc2oc1=O: -8
3) CCC(=O)Oc1ccc(/C=N/NC(N)=S)nc1: 0
4) N#C/C(=C/N1C(=O)/C(=C/c2ccc([N+](=O)[O-])cc2)SC1=S)c1nc2ccccc2s1: 7
5) CCOP1(=O)C=C(Sc2ccc([N+](=O)[O-])cc2[N+](=O)[O-])C(C)(C)O1 (stereo unspecified): 23
6) COc1ccc2oc(-c3ccc(Cl)cc3)c(N3CCN(C)CC3)c2c1: 23

* * *

Assay: NCI Yeast Anticancer Drug Screen. Data for the wt1 strain (AID 149);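 further: 0% = growth of vehicle-treated wt1 cultures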
Details: S. cerevisiae wt1 strain (SPY 50644) growth inhibition; at 100.0 µM; hits give high values
The panel holds about 79,000 compounds, 15% with a hit somewhere; the sample as a whole holds those more often.
Measured endpoint: growth inhibition (%)

1) Cc1ccc(CNc2ccc(Br)cc2)cc1: 82
2) CC(C)(C)c1ccc(O)c(C(c2ccc([N+](=O)[O-])cc2)c2cc(C(C)(C)C)ccc2O)c1: 90
3) Oc1ccc(Br)cc1C=NC1CCCCC1: 99
4) S=C(S)NCC1CCC(CNC(=S)S)CC1 (configuration not stated): 77
5) CCN(CC)CC(O)c1cc(-c2ccc(Cl)cc2)nc2c(-c3ccccc3)cccc12 (configuration not stated): 95
6) CO[C@@]12[C@H](COC(N)=O)C3=C(C(=O)C(C)=C(N)C3=O)N1C[C@@H]1N[C@@H]12: 62
7) O/N=C/C1c2ccccc2-c2ccccc21: 49

* * *

Test: NCI Yeast Anticancer Drug Screen. Data for the mlh1 rad18 strain (AID 175)
Conditions: S. cerevisiae mlh1 rad18 strain growth inhibition; at 50.0 µM (retest, dose inferred, filed as 5.0); hits give high values
Description: Growth inhibition of yeast strains with defined genetic alterations is measured as a screen for potential anti-cancer activity. Selected strains with alterations in DNA damage repair or cell cycle control were exposed to compounds and growth inhibition was measured relative to vehicle treated controls. The strain used in this assay is mlh1 rad18
This is part of a sample that, as a whole, favours compounds with a hit. Of some 79,000 tested, about 15% had one in any assay.
Measured endpoint: growth inhibition (%)

1. COc1cc(N(C)C)ccc1/C=C\c1ccnc2ccccc12: 32
2. O=C1C=CC(=O)N1c1ccc(I)cc1: 72
3. O=[N+]([O-])c1c(/C=N/Nc2ccccc2)oc(-c2ccc3c(c2)OCO3)c1-c1ccc2c(c1)OCO2: 38
4. CCCc1[nH]nc(C(N)=O)c1N=NN(C)C: 13
5. COC(=O)c1ccc2c(c1)Cc1ccccc1-2: 6
6. CN(C)CCNc1cccc2sc3ccc(O)cc3c(=O)c12: 44
7. O=C1CSC(=S)N1Cc1ccc(Cl)cc1Cl: 98
8. c1ccc(N2N=C3N(c4ccccc4)C2N3c2ccccc2)cc1: 99
9. Nc1ccc2c(=S)c3ccccc3[nH]c2c1: 64
10. NP1(Oc2ccc(F)cc2)=NP(N)(Oc2ccc(F)cc2)=NP(Oc2ccc(F)cc2)(Oc2ccc(F)cc2)=N1 (stereo unspecified): 86
11. N#CC(=S)Nc1cccc(Cl)c1: 86
12. CCCCCC(=O)c1ccc(O)cc1O: 99
13. Cc1ccc(Nc2c3c(c(C#N)c4nc5ccccc5n24)CCCC3)cc1: 68
14. Cc1cc(N=C2C=CC(=[N+](C)C)C=C2)c(N)cc1N: 56
15. OB(O)c1ccccc1C#Cc1ccccc1B(O)O: 79
16. Cc1ccc(Nc2n[nH]c(=S)s2)cc1: 60
17. CC(C)(C)[OH+][O-].[O-]c1ccc(Cl)cc1C=Nc1ccc(Cl)cc1[O-].[O]=[V]: 12
18. COc1ccc(/C=C(\NC(=O)c2ccccc2)C(=O)NN(C)c2ccnc3cc(Cl)ccc23)cc1OC: 1
19. Cc1ccc(N=Nc2ccc(O)c(C)c2)cc1: 51
20. O=C1C=CC(=Nc2ccccc2)c2ccccc21: 87
21. O=Nn1c2ccccc2c2ccccc21: 16
22. S=C(S)NCC1CCC(CNC(=S)S)CC1 (stereo unspecified): 99
23. NNC(=S)Nc1cccc(Cl)c1: 54
24. O=C1CC(=O)N(C2CCCCC2)C(=O)N1c1ccccc1S(=O)(=O)Oc1ccccc1: 100
25. CCCCCCCCCCCCCCCCCCNC(=S)/N=C\C1=C(O)c2ccccc2C1=O: 63
26. Cc1cc(O)c2c(c1O)C(=O)C13C(=C2O)C(=O)C2C(O)C1C1C(O)C3C(=O)C3=C(O)c4c(O)cc(C)c(O)c4C(=O)C321 (stereo unspecified): 86
27. Cc1ccc2c(ccc(/C=C/c3ccc(O)c4ncccc34)[n+]2C)c1: 91
28. CCCCCCCCCCCc1nc(N)n[nH]1: 20
29. CN(C)Cc1cccc(CN(C)C)[c]1[Sn]([Br])([c]1ccccc1)[c]1ccccc1: 98
30. C/C(=N\NC(=S)NNC(=S)N(C)c1ccccc1)c1ccccn1: 99
31. CN(C)CC1CCCc2ccccc2C1=O (stereo unspecified): 66
